Study System: Zcchc11 enzyme (Homo sapiens)
Construct: made in house; host or cells: HEK293 cells (Zcchc11); E. coli Rosetta II (LIN28A)
Sequence (Q5TAX3 212-1420): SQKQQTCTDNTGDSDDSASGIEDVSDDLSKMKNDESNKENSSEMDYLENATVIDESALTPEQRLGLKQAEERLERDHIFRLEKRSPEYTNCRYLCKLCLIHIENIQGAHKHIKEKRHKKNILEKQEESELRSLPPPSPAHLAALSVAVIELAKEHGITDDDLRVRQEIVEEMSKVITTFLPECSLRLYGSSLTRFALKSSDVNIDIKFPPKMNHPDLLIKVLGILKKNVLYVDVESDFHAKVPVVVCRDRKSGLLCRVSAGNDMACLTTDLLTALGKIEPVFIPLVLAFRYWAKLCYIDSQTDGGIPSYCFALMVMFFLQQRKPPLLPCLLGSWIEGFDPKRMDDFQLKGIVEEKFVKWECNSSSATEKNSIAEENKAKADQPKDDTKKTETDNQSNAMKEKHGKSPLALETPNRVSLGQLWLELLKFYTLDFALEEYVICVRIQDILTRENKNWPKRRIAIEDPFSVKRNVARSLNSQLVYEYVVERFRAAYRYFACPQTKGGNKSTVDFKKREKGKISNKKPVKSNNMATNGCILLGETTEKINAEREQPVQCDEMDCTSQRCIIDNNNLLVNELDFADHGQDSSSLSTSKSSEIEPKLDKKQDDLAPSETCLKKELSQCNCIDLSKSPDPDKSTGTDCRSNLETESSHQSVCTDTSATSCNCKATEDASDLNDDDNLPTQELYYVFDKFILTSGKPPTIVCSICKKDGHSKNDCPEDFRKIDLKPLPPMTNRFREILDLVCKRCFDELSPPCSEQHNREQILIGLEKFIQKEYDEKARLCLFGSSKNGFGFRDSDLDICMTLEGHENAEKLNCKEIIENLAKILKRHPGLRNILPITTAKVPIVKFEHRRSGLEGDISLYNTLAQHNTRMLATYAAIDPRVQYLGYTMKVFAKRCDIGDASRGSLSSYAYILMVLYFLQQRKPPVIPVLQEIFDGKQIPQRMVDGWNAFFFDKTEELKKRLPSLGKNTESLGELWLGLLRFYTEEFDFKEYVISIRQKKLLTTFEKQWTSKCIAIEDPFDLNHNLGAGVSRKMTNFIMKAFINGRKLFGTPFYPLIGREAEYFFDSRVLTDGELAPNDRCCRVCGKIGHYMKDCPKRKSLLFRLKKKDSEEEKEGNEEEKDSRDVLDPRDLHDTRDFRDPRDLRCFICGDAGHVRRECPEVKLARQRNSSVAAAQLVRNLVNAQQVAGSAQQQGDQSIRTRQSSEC
Assay Name: TUTase assay (Zcchc11 assay, Lin28a-dependent polyuridylation of pre-let-7)
Type: biochemical
Settings: Lin28a-dependent Zcchc11 (Z11) TUTase activity; read-out: Potency Lin28a-dep Z11 IC50
Measured IC50 values are reported for all entries that follow.

Use the examples below as a reference point.
Cc1ccc(Cl)c(OC[C@H]2CCCN2c2cc3c(cc2Cl)c(=O)c(C(=O)O)cn3-c2ccc(N3CC(N(C)C)C3)nc2)n1 (racemic) ... ≤ 1 µM
Cc1cccnc1OC[C@H]1CCCN1c1cc2c(cc1Cl)c(=O)c(C(=O)O)cn2-c1cnccn1 ... ≤ 1 µM
CC(C)[C@H]1COC(=O)N1C[C@H]1CCCN1c1cc2c(cc1Cl)c(=O)c(C(=O)O)cn2C1(C)CC1 ... > 50 µM
CS(=O)(=O)Nc1ccc(-n2cc(C(=O)O)c(=O)c3cc(F)c(N4CCC[C@@H]4COc4ccccn4)cc32)cc1 ... ≤ 1 µM
CO/N=C1\CCN(c2cc3c(cc2Cl)c(=O)c(C(=O)O)cn3-c2ccc(N3CC(N(C)C)C3)nc2)C1COc1nc(OC)ccc1Cl (stereo not shown) ... ≤ 1 µM
Cc1cccnc1OC[C@H]1CCCN1c1nc2c(cc1F)c(=O)c(C(=O)O)cn2-c1ccc(O)cc1 ... ≤ 1 µM

Q: Report measured IC50 on Zcchc11 enzyme (Homo sapiens); entry: N#Cc1cc2c(=O)c(C(=O)O)cn(-c3cnc(N4CCC4)cn3)c2nc1N1CCC[C@@H]1COc1ncccc1F (racemic)
Result: ≤ 1 µM

Q: # assay system Zcchc11 enzyme (Homo sapiens): give IC50 of Cc1cccnc1OC[C@H]1CCCN1c1cc2c(cc1F)c(=O)c(C(=O)O)cn2-c1ccc(F)c(O)c1
Result: ≤ 1 µM

Q: Answer briefly: IC50 recorded on Zcchc11 enzyme (Homo sapiens) for O=C(O)c1cn(-c2cnn(C3CN(CCF)C3)c2)c2cc(N3CCC[C@@H]3COc3ncccc3Cl)c(Cl)cc2c1=O
Result: ≤ 1 µM

Q: Quote Zcchc11 enzyme (Homo sapiens) IC50 for entry CN(C)C1CN(c2ccc(-n3cc(C(=O)O)c(=O)c4cc(Cl)c(N5CC6CC5(COc5ncccc5Cl)C6)cc43)cn2)C1 .
Result: 1 to 10 µM

Q: Please tell me the measured IC50 for CN(C)C1CN(c2ccc(-n3cc(C(=O)O)c(=O)c4cc(Cl)c(N5CCC6CC65COc5ncccc5Cl)cc43)cn2)C1 (stereo not shown) ; system: Zcchc11 enzyme (Homo sapiens).
Result: ≤ 1 µM

Q: // output IC50; input Cn1cc(-n2cc(C(=O)O)c(=O)c3cc(C#N)c(N4CCC[C@H]4COc4ncccc4Cl)nc32)cn1 ; system Zcchc11 enzyme (Homo sapiens)
Result: ≤ 1 µM

Q: Find IC50 for CN(C)C1CN(c2ccc(-n3cc(C(=O)O)c(=O)c4cc(Cl)c(N5CCC[C@@H]5COc5ncc6nc[nH]c6c5Cl)cc43)cn2)C1 on Zcchc11 enzyme (Homo sapiens) and write it down.
Result: ≤ 1 µM
